- system: T1, Anti-CD28 Fab (SEQ ID NOs: 696, 697)
- T1 construct: Biotinylated and captured on neutravidin coated plates in the phage ELISA
- T1 sequence (VH, as listed by the source, chain 1 of 2): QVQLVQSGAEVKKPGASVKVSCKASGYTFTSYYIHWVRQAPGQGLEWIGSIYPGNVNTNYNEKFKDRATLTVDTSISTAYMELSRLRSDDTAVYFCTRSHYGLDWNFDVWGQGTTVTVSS
- T1 sequence (VL, as listed by the source, chain 2 of 2): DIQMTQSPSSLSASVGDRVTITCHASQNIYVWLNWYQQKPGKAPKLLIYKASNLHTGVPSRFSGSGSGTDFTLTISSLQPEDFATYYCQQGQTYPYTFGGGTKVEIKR
- protocol.details: clonal phage ELISA; biotinylated anti-CD28 Fab on neutravidin plate, bound phage detected with anti-M13 HRP
test.readout: Phage binding ELISA, Anti-CD28 Fab signal
A bare number is all that is needed in reply.

# input What value of Phage binding ELISA, Anti-CD28 Fab signal has been reported for the following binder? YCDGHAMEYMEKCL [Phage-1182]
# output 1.11

# input What value of Phage binding ELISA, Anti-CD28 Fab signal has been reported for the following binder? YCEGHSEMYMSKCL [Phage-1190]
# output 1.07

# input What value of Phage binding ELISA, Anti-CD28 Fab signal has been reported for the following binder? YCAGHAEEYMLKCL [Phage-1186]
# output 1.09

# input What value of Phage binding ELISA, Anti-CD28 Fab signal has been reported for the following binder? YCDGHANAYIWKCL [Phage-1191]
# output 1.07

# input What value of Phage binding ELISA, Anti-CD28 Fab signal has been reported for the following binder? YCDGHSFHYMAKCL [Phage-1189]
# output 1.08

Just for reference, patent US20260242478A1 is where these values come from.
